Exercise: for every item that follows, state its recorded pIC50.
targetOrSystem: BCR fusion to kinase domain of MerTK (Ba/F3-MerTK) (Homo sapiens)
Sequence (Q12866 21-999 limits assumed, change not shown): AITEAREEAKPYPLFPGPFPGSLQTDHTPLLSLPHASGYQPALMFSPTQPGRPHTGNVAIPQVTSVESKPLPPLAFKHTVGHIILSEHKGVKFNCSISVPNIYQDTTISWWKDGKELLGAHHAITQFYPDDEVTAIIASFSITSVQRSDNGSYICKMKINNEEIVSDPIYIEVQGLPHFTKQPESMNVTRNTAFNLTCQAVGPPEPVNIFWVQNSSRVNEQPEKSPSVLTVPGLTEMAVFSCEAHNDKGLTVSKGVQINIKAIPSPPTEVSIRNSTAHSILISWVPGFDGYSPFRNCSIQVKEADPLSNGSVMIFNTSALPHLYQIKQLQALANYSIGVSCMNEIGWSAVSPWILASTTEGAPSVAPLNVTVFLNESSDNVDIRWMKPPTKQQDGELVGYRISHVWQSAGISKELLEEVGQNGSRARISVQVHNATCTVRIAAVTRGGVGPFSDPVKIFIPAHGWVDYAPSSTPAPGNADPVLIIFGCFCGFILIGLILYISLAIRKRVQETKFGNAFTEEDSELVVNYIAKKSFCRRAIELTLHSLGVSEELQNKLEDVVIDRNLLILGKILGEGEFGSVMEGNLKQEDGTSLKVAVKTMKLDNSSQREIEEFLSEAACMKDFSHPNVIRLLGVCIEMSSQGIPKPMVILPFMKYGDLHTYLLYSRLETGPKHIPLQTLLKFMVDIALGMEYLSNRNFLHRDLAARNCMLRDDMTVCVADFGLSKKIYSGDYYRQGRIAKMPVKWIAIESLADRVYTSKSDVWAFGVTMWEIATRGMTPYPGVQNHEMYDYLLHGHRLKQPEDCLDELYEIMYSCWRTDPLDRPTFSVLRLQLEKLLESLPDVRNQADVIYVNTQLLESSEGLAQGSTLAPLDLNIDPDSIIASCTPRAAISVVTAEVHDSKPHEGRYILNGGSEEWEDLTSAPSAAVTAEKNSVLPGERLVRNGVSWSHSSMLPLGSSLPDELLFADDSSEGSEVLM
protocolDescription: In Cell TAM Kinase Assay Using BaF3 Cellular System
Type: cell-based, murine
statedConditions: Ba/F3 BCR-kinase fusion proliferation, 72 hours, Cell Titer Glo; kinase not given; read-out: IC50
pIC50: −log10 of the molar value.

q: Reported pIC50, molecule Cn1cc(-c2cnc(N)c(C(=O)N[C@@H]3CCN(C(=O)c4ccc5cc(O)ccc5c4)C3)c2)cn1 : ____
a: < 6.00

q: Reported pIC50, molecule Cn1cc(-c2cnc(N)c(C(=O)N[C@@H]3CCN(C(=O)c4ccc(-c5ccc(Oc6ccc(C(=O)O)cc6)cc5)cc4)C3)c2)cn1 : ____
a: < 6.00

q: Reported pIC50, molecule Cn1cc(-c2cnc(N)c(C(=O)N[C@@H]3CCN(C(=O)c4cc5c(C(F)(F)F)ccc(Cl)c5[nH]4)C3)c2)cn1 : ____
a: < 6.00

Origin of the recorded values: patent US12378224B2
